Tested on: RPMI-8226
Assay: NCI tumour cell line growth inhibition, 48 h
Active and inactive are the calls of the source. Rule as the data show it: active = GI50 up to about 1.1 µM and inactive = higher.
Labels: active, inactive

INSERT INTO measurements (molecule, answerlabel) VALUES
  ('O=C1NC(=O)C2(CCC(O)C2)c2cc[n+]([O-])cc21 (stereo unspecified)', 'inactive'),
  ('CC1(C(=O)O)CCC[C@@]2(C)C1CC[C@@]1(C)c3cocc3CCC21 (stereo partly specified)', 'inactive'),
  ('Cc1cn([C@@H]2O[C@H](CO[Si](C)(C)C(C)(C)C)[C@]3(O[C@H]3C(=O)NN)[C@H]2O[Si](C)(C)C(C)(C)C)c(=O)[nH]c1=O', 'inactive'),
  ('O=C(O)CC(Nc1ccccc1)C(=O)O (stereo unspecified)', 'inactive'),
  ('COc1ccc2oc(-c3ccc(OC)c(OC)c3OC)cc(=O)c2c1', 'inactive'),
  ('Cn1cnnc1Sc1c([N+](=O)[O-])ncn1C', 'inactive'),
  ('CCCCCCCCCCCCCCCCCCOCC(CO[PH](=O)O)OCCCCCCCCCCCCCCCCCC (stereo unspecified)', 'inactive'),
  ('COc1ccc(-c2cc(-c3ccc(Cl)cc3)n(C3OC(CO)C(O)C(O)C3O)c(=S)c2C#N)cc1 (stereo unspecified)', 'inactive'),
  ('CCOC(=O)c1ccn2c(c1)c(C#N)c1nc3ccccc3nc12', 'inactive'),
  ('COc1ccc2cc(/C=N\NC(=O)Nc3ccc([N+](=O)[O-])cc3)ccc2c1', 'inactive'),
  ('COc1ccc2c(c1)CCC(OS(=O)(=O)CC13CCC(CC1=O)C3(C)C)C2=O (stereo unspecified)', 'inactive'),
  ('Cc1ccc(/N=N/C(=NNC(=O)c2ccc(C)cc2)c2ccc(N(C)C)cc2)cc1', 'inactive'),
  ('NC1=NCCN1CC(=O)O [CYCLOCREATINE]', 'inactive'),
  ('O=C1/C(=C/c2ccccc2)CCCC1CN1CCCCC1 (stereo unspecified)', 'inactive'),
  ('C1=N\c2ccc(cc2)/N=C\c2ccc(cc2)OCc2cccc(n2)COc2ccc/1cc2', 'inactive'),
  ('O=C1OC2C=CC1C1(CCOC1=O)C2 (stereo unspecified)', 'inactive'),
  ('CC1/C=C/[C@@]2(C)CCC(C(C)(C)O)C2C(O)C[C@](C)(O)/C=C/C1 (stereo partly specified)', 'inactive'),
  ('CC1=CCN(c2ccccn2)OC1c1ccccc1 (stereo unspecified)', 'inactive'),
  ('O=C1C(Cl)=C(N2CCC[C@@H]2CO)C(=O)c2c(O)ccc(O)c21', 'active'),
  ('CCCCCCCCCCCCCCNC(=O)CCC(NC(=O)c1ccc(N(C)Cc2cnc3nc(N)nc(N)c3n2)cc1)C(=O)NCCCCCCCCCCCCCC (stereo unspecified)', 'inactive'),
  ('Cc1ccc(S(=O)(=O)N/N=C2/C3CC4CCC2C4C3)cc1 (stereo unspecified)', 'inactive');
